# assayOverview: Antitumor activity against human EC9706 cells after 72 hrs by MTT assay
# Format: functional, cell-based
# conditionLabel: Homo sapiens, EC9706, 72 h; read-out: IC50
Field: IC50. Provide a value for each of the molecules that follow.
Answers are plain numbers, in µM.

Value sought for every listed molecule: IC50.
1. CC(C)N(C(=S)SCC1=CC(=O)OC1)C(C)C
2. CCN(CC)C(=S)SCC1=CCOC1=O

[49.2, 136]

Value sought for every listed molecule: IC50.
1. O=C1OCC=C1CSC(=S)Nc1ccccc1
2. O=c1[nH]cc(F)c(=O)[nH]1
3. O=C1OCC=C1CSC(=S)N1CCOCC1
4. Cc1ccc(NC(=S)SCC2=CCOC2=O)cc1

1. 16.2
2. 20.3
3. 26
4. 91

Value sought for every listed molecule: IC50.
1. CN1CCN(C(=S)SCC2=CCOC2=O)CC1
2. O=C1CC2(CO1)CSC(=S)N2c1ccc(Cl)cc1 (centres undefined)
3. CN(C)C(=S)SCC1=CC(=O)OC1
4. CNC(=S)SCC1=CCOC1=O

[14.3, 32.6, 7.55, 85.4]

Entry source: ChEMBL document CHEMBL1770062
